Assign IC50, Activin SMAD RGA to each entry below.
Target: ActRIIA and ActRIIB (on TGFB/SMAD SBE Reporter HEK293 cells) (human)
Sequence (chain, as listed by the source, chain 1 of 2): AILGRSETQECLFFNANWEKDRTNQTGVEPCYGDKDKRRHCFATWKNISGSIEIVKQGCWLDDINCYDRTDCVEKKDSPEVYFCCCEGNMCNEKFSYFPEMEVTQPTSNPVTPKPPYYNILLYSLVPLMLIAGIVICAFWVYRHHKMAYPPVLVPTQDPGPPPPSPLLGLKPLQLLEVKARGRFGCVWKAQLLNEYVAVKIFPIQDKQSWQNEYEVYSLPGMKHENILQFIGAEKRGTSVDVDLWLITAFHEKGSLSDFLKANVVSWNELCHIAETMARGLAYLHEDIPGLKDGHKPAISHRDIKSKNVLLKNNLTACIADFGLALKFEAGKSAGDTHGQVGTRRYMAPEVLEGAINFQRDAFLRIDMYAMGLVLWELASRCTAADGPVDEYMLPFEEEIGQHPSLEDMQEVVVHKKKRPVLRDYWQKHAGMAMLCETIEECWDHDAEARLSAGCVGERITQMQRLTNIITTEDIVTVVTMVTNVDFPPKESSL
Sequence (chain, as listed by the source, chain 2 of 2): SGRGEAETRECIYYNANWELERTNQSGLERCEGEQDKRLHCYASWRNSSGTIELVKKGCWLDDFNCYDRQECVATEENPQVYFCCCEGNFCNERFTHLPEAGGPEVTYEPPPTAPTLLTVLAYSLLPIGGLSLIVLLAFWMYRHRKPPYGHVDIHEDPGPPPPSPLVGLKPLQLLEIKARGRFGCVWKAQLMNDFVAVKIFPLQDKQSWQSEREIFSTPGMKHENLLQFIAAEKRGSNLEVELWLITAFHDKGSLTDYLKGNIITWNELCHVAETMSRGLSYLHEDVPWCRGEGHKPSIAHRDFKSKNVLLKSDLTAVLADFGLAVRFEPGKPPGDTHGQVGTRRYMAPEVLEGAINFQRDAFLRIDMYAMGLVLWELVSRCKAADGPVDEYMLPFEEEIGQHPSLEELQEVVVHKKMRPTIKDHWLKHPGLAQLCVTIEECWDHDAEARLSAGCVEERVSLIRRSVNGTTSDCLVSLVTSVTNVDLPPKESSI
Assay: cell-based or functional assay
Answers are plain numbers, in nM.

binder: Antibody Duuranad (antibody, V domains shown, full-length IgG) VH: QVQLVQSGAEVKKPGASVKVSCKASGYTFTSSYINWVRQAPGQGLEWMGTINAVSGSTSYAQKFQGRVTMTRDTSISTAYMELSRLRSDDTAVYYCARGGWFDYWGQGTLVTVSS VL: QSALTQPASVSGSPGQSITISCTGTSSDVGSFNYVNWYQQHPGKAPKLMIRGVSKRESGVSNRFSGSKSGNTASLTISGLQAEDEADYYCGTFAGGAYYGVFGGGTKLTVL
IC50, Activin SMAD RGA [nM]: 0.272
--
binder: Antibody Riaba (antibody, V domains shown, full-length IgG) VH: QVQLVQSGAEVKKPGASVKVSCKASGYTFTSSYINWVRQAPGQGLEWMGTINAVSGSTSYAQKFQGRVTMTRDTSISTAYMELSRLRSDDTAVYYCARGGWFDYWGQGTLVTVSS VL: QSALTQPASVSGSPGQSITISCTGTSSDVGSYNYVNWYQQHPGKAPKLMIYGVSKRDSGVSNRFSGSKSGNTASLTISGLQAEDEADYYCGTFAGGKYYGVFGGGTKLTVL
IC50, Activin SMAD RGA [nM]: 0.134
--
binder: Antibody Bäradreck (antibody, V domains shown, full-length IgG) VH: QVQLVQSGAEVKKPGSSVKVSCKASGYTFTSSYINWVRQAPGQGLEWMGTINPVSGSTSYAQKFQGRVTITADTSTSTAYMELSSLRSEDTAVYYCARGGWFDYWGQGTLVTVSS VL: QSALTQPRSVSGSPGQSVTISCTGTSSDVGSYNYVNWYQQHPGKAPKLMIYGVSKRPSGVPDRFSGSKSGNTASLTISGLQAEDEADYYCGTFAGGSYYGVFGGGTKLTVL
IC50, Activin SMAD RGA [nM]: 0.257

Provide the reported IC50, Activin SMAD RGA of each entry below, same order.
1. Antibody Hasaschlegel (antibody, V domains shown, full-length IgG) VH: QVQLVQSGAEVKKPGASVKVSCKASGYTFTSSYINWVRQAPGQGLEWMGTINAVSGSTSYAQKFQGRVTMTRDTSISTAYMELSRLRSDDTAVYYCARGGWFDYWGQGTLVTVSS VL: QSALTQPASVSGSPGQSITISCTGTSSDVGSYDYVNWYQQHPGKAPKLMIHGVSKRESGVSNRFSGSKSGNTASLTISGLQAEDEADYYCGTFAGGSYYGVFGGGTKLTVL
2. Antibody Biiramooscht (antibody, V domains shown, full-length IgG) VH: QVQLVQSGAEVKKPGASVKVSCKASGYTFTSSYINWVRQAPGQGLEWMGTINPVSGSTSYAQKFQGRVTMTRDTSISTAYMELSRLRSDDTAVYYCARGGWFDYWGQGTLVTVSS VL: QSALTQPASVSGSPGQSITISCTGTSSDVGSYNYVNWYQQHPGKAPKLMIYGVSKRESGVSNRFSGSKSGNTASLTISGLQAEDEADYYCGTFAGGAYYGVFGGGTKLTVL

result:
0.722
0.161
